These measurements were taken from ChEMBL document CHEMBL1144925.

Molecular target: Lanosterol synthase (Homo sapiens, UniProt P48449)
Sequence (P48449 whole entry): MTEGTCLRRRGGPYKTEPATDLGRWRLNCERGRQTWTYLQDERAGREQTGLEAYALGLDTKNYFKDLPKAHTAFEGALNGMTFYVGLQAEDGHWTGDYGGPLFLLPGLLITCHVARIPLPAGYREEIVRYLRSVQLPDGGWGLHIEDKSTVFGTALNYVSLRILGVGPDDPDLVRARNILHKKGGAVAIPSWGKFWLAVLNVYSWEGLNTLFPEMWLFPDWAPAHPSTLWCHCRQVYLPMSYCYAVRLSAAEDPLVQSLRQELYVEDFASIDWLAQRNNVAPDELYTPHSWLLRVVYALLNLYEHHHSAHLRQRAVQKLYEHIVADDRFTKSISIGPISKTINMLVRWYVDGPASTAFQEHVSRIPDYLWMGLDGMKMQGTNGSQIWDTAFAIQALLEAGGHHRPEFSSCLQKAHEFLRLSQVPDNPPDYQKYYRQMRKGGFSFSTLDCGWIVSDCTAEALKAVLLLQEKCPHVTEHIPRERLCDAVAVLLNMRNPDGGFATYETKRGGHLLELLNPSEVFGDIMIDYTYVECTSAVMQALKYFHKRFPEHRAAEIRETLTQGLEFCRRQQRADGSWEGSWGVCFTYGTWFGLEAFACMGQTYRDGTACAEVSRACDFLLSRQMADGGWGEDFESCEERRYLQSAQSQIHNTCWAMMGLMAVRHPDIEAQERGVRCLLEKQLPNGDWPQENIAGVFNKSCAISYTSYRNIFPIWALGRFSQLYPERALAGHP
Returns: string. Value is satisfied if measured IC50 is below 40 nM, and not satisfied if it is greater than or equal to it.

- C=CCN(C)C/C=C/COc1ccc(C(=O)c2ccc(Br)cc2)cc1: satisfied

Exercise: Is the reported IC50 for CN(C(=O)Oc1ccc(Cl)cc1)[C@H]1CC[C@H](c2ccc(C[N+]3([O-])CCCCC3)cc2)CC1 strictly below 40 nM?
Key: not satisfied

Exercise: Input C=CCN(C)CCCCCCOC1CCN(C(=O)c2ccc(F)cc2)CC1 ; condition: IC50 strictly below 40 nM. Does it hold?
Key: not satisfied

Exercise: IC50 strictly < 40 nM for this compound? C=CCN(C)CCCCCCOc1ccc2c(C)nn(C)c2c1
Key: not satisfied

Exercise: Field: below-cutoff. Rule: recorded IC50 strictly less than 40 nM. Subject: C=CCN(C)CCCCCCOc1ccc2c(-c3ccc(Br)cc3)nsc2c1
Key: satisfied

----------
target: Squalene--hopene cyclase (Alicyclobacillus acidocaldarius subsp. acidocaldarius (strain ATCC27009 / DSM 446 / 104-1A) (Bacillus acidocaldarius), UniProt P33247); assay: Inhibitory activity against squalene hopene cyclase from Alicyclobacillus acidocaldarius
Sequence (P33247 whole entry): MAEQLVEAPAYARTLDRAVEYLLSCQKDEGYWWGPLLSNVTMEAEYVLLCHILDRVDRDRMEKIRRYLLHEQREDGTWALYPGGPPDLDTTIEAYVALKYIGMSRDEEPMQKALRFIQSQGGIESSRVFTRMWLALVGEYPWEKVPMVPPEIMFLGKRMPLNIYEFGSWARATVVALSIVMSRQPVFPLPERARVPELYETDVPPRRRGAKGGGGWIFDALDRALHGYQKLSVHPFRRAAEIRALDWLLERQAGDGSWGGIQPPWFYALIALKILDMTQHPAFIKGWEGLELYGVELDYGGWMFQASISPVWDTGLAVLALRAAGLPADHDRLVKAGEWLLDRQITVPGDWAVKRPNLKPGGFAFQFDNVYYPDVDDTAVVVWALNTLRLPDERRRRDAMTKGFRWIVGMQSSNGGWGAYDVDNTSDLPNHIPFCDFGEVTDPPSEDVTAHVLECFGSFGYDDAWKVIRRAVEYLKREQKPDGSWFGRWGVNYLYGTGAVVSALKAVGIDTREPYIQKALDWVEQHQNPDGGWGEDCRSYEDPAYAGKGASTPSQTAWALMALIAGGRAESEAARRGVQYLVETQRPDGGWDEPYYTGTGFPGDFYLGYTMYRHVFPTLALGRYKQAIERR
TEST_READOUT: pIC50
Note: pIC50 values are expressed as the negative base-10 logarithm of concentration in M.

Exercise: Fill in pIC50 for record C=CCN(C)CCCCCCOc1ccc2c(-c3ccc(Br)cc3)noc2c1
Key: 7.12

Exercise: Indicate the recorded pIC50 value for this compound: C=CCN(C)C/C=C/COc1ccc2c(-c3ccc(Br)cc3)csc2c1
Key: 7.12

Exercise: Return value of pIC50 for input C=CCN(C)C/C=C/COc1ccc(-c2nsc3cc(Br)ccc23)cc1 , no commentary.
Key: 6.89

Exercise: State its pIC50: CN(C[C@H]1C[C@@H]1COc1ccc(C(=O)c2ccc(Br)cc2)cc1)C1CC1
Key: 7.21

Exercise: Report measured pIC50; entry is C=CCN(C)CCCCCCOc1ccc(C(=O)c2ccc(Br)cc2)cc1
Key: 7.02

Exercise: State, in one line, measured pIC50 of CN(C(=O)Oc1ccc(Cl)cc1)[C@H]1CC[C@H](c2ccc(C[N+]3([O-])CCCCC3)cc2)CC1
Key: 6.91
